# credit: PubChem BioAssay (EPA / NIEHS)

# assay.text: Tanguay_ZF_120hpf_JAW_legacy: (Legacy) Oregon State University Tanguay Lab 120 Hour Post-fertilization zebrafish Assay for Jaw Malformation (AID 2283638)
Results filed as inconclusive are left out. Calls of active or inactive are those of the source. How the source made its calls: active means hit-call score of the fitted dose curve at least 0.9, where 1 is the maximum; inconclusive means response in the unintended direction; inactive means score below 0.9.
Labels: True = active, False = inactive

[
  {
    "compound": "CC(C)N(C(=O)COc1nnc(C(F)(F)F)s1)c1ccc(F)cc1",
    "label": "False"
  },
  {
    "compound": "CCOC1Oc2ccc(OS(C)(=O)=O)cc2C1(C)C (stereo not drawn)",
    "label": "False"
  },
  {
    "compound": "O=C(Nc1ccccc1)Nc1cnns1",
    "label": "False"
  },
  {
    "compound": "CNC(=O)Oc1cccc(N=CN(C)C)c1",
    "label": "False"
  },
  {
    "compound": "Cc1[nH]c(=O)n(C(C)(C)C)c(=O)c1Cl",
    "label": "False"
  },
  {
    "compound": "O=[N+]([O-])/N=C1\\NCCN1Cc1ccc(Cl)nc1",
    "label": "False"
  },
  {
    "compound": "CN1CSC(=S)N(C)C1",
    "label": "True"
  },
  {
    "compound": "Oc1ccc(Cl)cc1Cc1ccccc1",
    "label": "False"
  },
  {
    "compound": "CC1(c2ccc(Oc3ccccc3)cc2)OC(=O)N(Nc2ccccc2)C1=O (stereo not drawn)",
    "label": "False"
  },
  {
    "compound": "O=S1OCC2C(CO1)C1(Cl)C(Cl)=C(Cl)C2(Cl)C1(Cl)Cl (stereo not drawn)",
    "label": "False"
  },
  {
    "compound": "O=C(O)CCCOc1ccc(Cl)cc1Cl",
    "label": "False"
  },
  {
    "compound": "Oc1cc(Cl)ccc1Oc1ccc(Cl)cc1Cl",
    "label": "False"
  },
  {
    "compound": "CCCN(CCOc1c(Cl)cc(Cl)cc1Cl)C(=O)n1ccnc1",
    "label": "False"
  }
]

---

# Read-out: Cytochrome P450 2C19 (Homo sapiens) (UniProt P33261)
# Sequence (P33261 whole entry, looked up): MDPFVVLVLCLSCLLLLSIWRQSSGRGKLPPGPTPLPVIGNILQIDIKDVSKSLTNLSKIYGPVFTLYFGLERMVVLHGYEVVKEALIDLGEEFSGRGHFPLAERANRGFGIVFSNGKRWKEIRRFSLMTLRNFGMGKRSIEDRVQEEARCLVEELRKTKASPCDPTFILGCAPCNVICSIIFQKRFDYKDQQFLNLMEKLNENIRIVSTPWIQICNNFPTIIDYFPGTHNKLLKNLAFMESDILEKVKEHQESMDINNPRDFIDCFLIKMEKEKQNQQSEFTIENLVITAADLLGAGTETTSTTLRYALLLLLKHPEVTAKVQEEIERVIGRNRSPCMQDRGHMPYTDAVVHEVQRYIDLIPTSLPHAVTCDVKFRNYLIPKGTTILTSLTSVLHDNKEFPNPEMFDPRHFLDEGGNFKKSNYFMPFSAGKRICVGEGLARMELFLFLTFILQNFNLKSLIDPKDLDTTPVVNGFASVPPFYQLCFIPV
# assay.text: LTEA_HepaRG_CYP2C19: Life Technologies and Expression Analysis (LTEA) Assay for CYP2C19 using HepaRG (AID 2283482)
# test.context: mRNA level, 48 h; actives raise or lower the signal
Calls of active or inactive are those of the source. The calls were made as follows: active = hit-call score of the fitted dose curve at least 0.9, where 1 is the maximum; inactive = score below 0.9.
Classes used: active, inactive

[
  {
    "compound": "O=[N+]([O-])c1c(Cl)c(Cl)c(Cl)c(Cl)c1Cl",
    "label": "inactive"
  },
  {
    "compound": "CCC(C)Nc1c([N+](=O)[O-])cc(C(C)(C)C)cc1[N+](=O)[O-] (stereo not drawn)",
    "label": "active"
  },
  {
    "compound": "O=C(NC(=O)c1c(F)cccc1F)Nc1ccc(OC(F)(F)C(F)OC(F)(F)F)c(Cl)c1 (stereo not drawn)",
    "label": "inactive"
  },
  {
    "compound": "COP(=O)(OC)OC=C(Cl)Cl",
    "label": "inactive"
  },
  {
    "compound": "CC[C@H](C)[C@H]1O[C@]2(C=C[C@@H]1C)C[C@@H]1C[C@@H](C/C=C(\\C)[C@@H](O[C@H]3C[C@H](OC)[C@@H](O[C@H]4C[C@H](OC)[C@@H](O)[C@H](C)O4)[C@H](C)O3)[C@@H](C)/C=C/C=C3\\CO[C@@H]4[C@H](O)C(C)=C[C@@H](C(=O)O1)[C@]34O)O2 (tested in a mixture with another compound)",
    "label": "active"
  },
  {
    "compound": "Clc1ccccc1-c1nnc(-c2ccccc2Cl)nn1",
    "label": "active"
  },
  {
    "compound": "C[C@H]1[C@H](c2ccc(Cl)cc2)SC(=O)N1C(=O)NC1CCCCC1",
    "label": "active"
  },
  {
    "compound": "O=C(Nc1ccccc1)Nc1cnns1",
    "label": "active"
  }
]

---

# Read-out: Interleukin 6 (IL6), IL6 (gene 3569)
# assay.text: LTEA_HepaRG_IL6: Life Technologies and Expression Analysis (LTEA) Assay for Interleukin 6 (IL6) using HepaRG (AID 2283509)
# test.context: mRNA level, 48 h; actives raise or lower the signal
The source made the active and inactive calls. How the source made its calls: active means hit-call score of the fitted dose curve at least 0.9, where 1 is the maximum; inactive means score below 0.9.
Outcome codes: active, inactive

[
  {
    "compound": "CCC(C)Nc1c([N+](=O)[O-])cc(C(C)(C)C)cc1[N+](=O)[O-] (configuration not stated)",
    "label": "inactive"
  },
  {
    "compound": "O=C1c2ccccc2C(=O)N1SC(Cl)(Cl)Cl",
    "label": "inactive"
  },
  {
    "compound": "ClC1C(Cl)C(Cl)C(Cl)C(Cl)C1Cl (configuration not stated)",
    "label": "inactive"
  },
  {
    "compound": "Cc1[nH]c(=O)n(C(C)(C)C)c(=O)c1Cl",
    "label": "inactive"
  },
  {
    "compound": "CNC(=O)CSP(=S)(OC)OC",
    "label": "inactive"
  },
  {
    "compound": "O=[N+]([O-])c1c(Cl)c(Cl)c(Cl)c(Cl)c1Cl",
    "label": "active"
  },
  {
    "compound": "C#CCN1C(=O)COc2cc(F)c(N3C(=O)C4=C(CCCC4)C3=O)cc21",
    "label": "inactive"
  },
  {
    "compound": "CCCN(CCOc1c(Cl)cc(Cl)cc1Cl)C(=O)n1ccnc1",
    "label": "active"
  },
  {
    "compound": "O=C(O)COc1ccc(Cl)cc1Cl",
    "label": "inactive"
  },
  {
    "compound": "CCOCN(C(=O)CCl)c1c(C)cccc1CC",
    "label": "inactive"
  },
  {
    "compound": "CCc1ccc(C(=O)NN(C(=O)c2cc(C)cc(C)c2)C(C)(C)C)cc1",
    "label": "inactive"
  },
  {
    "compound": "N#Cc1c(Cl)c(Cl)c(Cl)c(C#N)c1Cl",
    "label": "inactive"
  }
]

---

# target.entity: Estrogen receptor (Homo sapiens)
# assay.text: ATG_ERa_TRANS: Attagene TRANS-FACTORIAL HepG2 Assay for human Estrogen Receptor alpha (ERa) (AID 2282970)
# test.context: HepG2 Attagene TRANS ERa GAL4 reporter, mRNA
Inconclusive results are not listed. Active and inactive are the calls of the source. How the source made its calls: active means hit-call score of the fitted dose curve at least 0.9, where 1 is the maximum; inconclusive means response in the unintended direction; inactive means score below 0.9.
Labels: 1 (yes) = active, 0 (no) = inactive

[
  {
    "compound": "COC(=O)c1ccccc1CS(=O)(=O)NC(=O)Nc1nc(OC)cc(OC)n1",
    "target.entity": "Estrogen receptor (Homo sapiens)",
    "label": "0 (no)"
  },
  {
    "compound": "CNC(=O)Oc1cccc(N=CN(C)C)c1",
    "target.entity": "Estrogen receptor (Homo sapiens)",
    "label": "0 (no)"
  },
  {
    "compound": "Cc1cc(C)nc(NC(=O)NS(=O)(=O)c2ccccc2C(=O)OC2COC2)n1",
    "target.entity": "Estrogen receptor (Homo sapiens)",
    "label": "0 (no)"
  },
  {
    "compound": "O=C(NC(=O)c1c(F)cccc1F)Nc1ccc(OC(F)(F)C(F)OC(F)(F)F)c(Cl)c1 (configuration not stated)",
    "target.entity": "Estrogen receptor (Homo sapiens)",
    "label": "0 (no)"
  },
  {
    "compound": "CCOCN(C(=O)CCl)c1c(C)cccc1CC",
    "target.entity": "Estrogen receptor (Homo sapiens)",
    "label": "0 (no)"
  },
  {
    "compound": "CC(C)OC(=O)Nc1cccc(Cl)c1",
    "target.entity": "Estrogen receptor (Homo sapiens)",
    "label": "0 (no)"
  },
  {
    "compound": "N#CN",
    "target.entity": "Estrogen receptor (Homo sapiens)",
    "label": "0 (no)"
  },
  {
    "compound": "CC(C)(C)C(O)/C(=C\\c1ccc(Cl)cc1Cl)n1cncn1 (configuration not stated)",
    "target.entity": "Estrogen receptor (Homo sapiens)",
    "label": "0 (no)"
  },
  {
    "compound": "CCC(C)Nc1c([N+](=O)[O-])cc(C(C)(C)C)cc1[N+](=O)[O-] (configuration not stated)",
    "target.entity": "Estrogen receptor (Homo sapiens)",
    "label": "1 (yes)"
  },
  {
    "compound": "CCOC1Oc2ccc(OS(C)(=O)=O)cc2C1(C)C (configuration not stated)",
    "target.entity": "Estrogen receptor (Homo sapiens)",
    "label": "1 (yes)"
  },
  {
    "compound": "COP(=S)(OC)Oc1ccc([N+](=O)[O-])cc1",
    "target.entity": "Estrogen receptor (Homo sapiens)",
    "label": "0 (no)"
  },
  {
    "compound": "OCCOc1ccccc1",
    "target.entity": "Estrogen receptor (Homo sapiens)",
    "label": "0 (no)"
  }
]
